test system: NCI-H226; assay: NCI tumour cell line growth inhibition, 48 h
The source made the active and inactive calls. Rule as the data show it: active = GI50 up to about 1.1 µM and inactive = higher.
readout-type: GI50

Enquiry: Find the measured GI50 of N#CCCC1(CCC#N)CCCCCCC(CCC#N)(CCC#N)C(O)C1O (stereo not drawn) and report it.
Return: 53.8 µM (inactive)

Enquiry: Find the measured GI50 of CCOC(=O)C(O)(NC(=O)c1ccc(F)cc1)C(F)(F)F (stereo not drawn) and report it.
Return: > 100 µM (inactive)

Enquiry: Find the measured GI50 of CC(C)n1c2c(c3ccccc3c1=O)C(=O)c1ccccc1-2 and report it.
Return: > 100 µM (inactive)

* * *

test system: SF-295; assay: NCI tumour cell line growth inhibition, 48 h
The source made the active and inactive calls. Rule as the data show it: active = GI50 up to about 1.1 µM and inactive = higher.
Assignment: determine reported GI50 for the given compounds.

Enquiry: Find the measured GI50 of CC1=C(C(=O)Nc2cc(F)c(F)cc2F)C(c2ccc(N(C)C)cc2)C(C(=O)Nc2cc(F)c(F)cc2F)=C(C)N1 and report it.
Return: 24.3 µM (inactive)

Enquiry: Find the measured GI50 of CC1CCc2c(sc3ncnc(N/N=C/c4ccc(Cl)cc4)c23)C1 (stereo not drawn) and report it.
Return: 29.8 µM (inactive)

Enquiry: Find the measured GI50 of [N-]=[N+]=C(C(=O)CN1CCCC1=O)S(=O)(=O)c1ccccc1 and report it.
Return: > 100 µM (inactive)

Enquiry: Find the measured GI50 of CCN(CC)CCOC(=O)c1ccc(N)cc1.CCOC(=O)Nc1ccc(S(=O)(=O)OC)cc1.CCOC(=O)Nc1ccc(S(=O)(=O)OC)cc1.Nc1ccc(C(=O)O)c(O)c1 and report it.
Return: > 100 µM (inactive)

Enquiry: Find the measured GI50 of COc1c(O)ccc(C2=Cc3ccc(O)cc3OC2)c1OC and report it.
Return: 22.8 µM (inactive)

Enquiry: Find the measured GI50 of CCOc1ccc(/N=N/c2c(-c3ccccc3)nn(C(=O)CC(=O)Nc3cccc(C)c3)c2-c2ccccc2)cc1 and report it.
Return: > 100 µM (inactive)

Enquiry: Find the measured GI50 of C[C@@]1(Br)C[C@@](C)(Cl)[C@@H](Br)CC1/C=C/Cl (stereo partly drawn) and report it.
Return: 14.4 µM (inactive)

Enquiry: Find the measured GI50 of Cc1ccc(Nc2nc3c(=O)n(C)c(=O)n(C)c3nc2Nc2ccc(C)cc2)cc1 and report it.
Return: 20.8 µM (inactive)

All figures here come from ChEMBL document CHEMBL1201862.
